Where do the numbers come from? From patent US20070027138A1.

Give pIC50 for every item shown.
biological target: acetylcholinesterase (AChE), human recombinant (Homo sapiens); assay: biochemical; format: biochemical; conditions: human recombinant enzyme (hr); pre-incubation of the enzyme with inhibitor (mE); read-out: IC50 (AChE, mE, hr)
Sequence (P22303 32-614): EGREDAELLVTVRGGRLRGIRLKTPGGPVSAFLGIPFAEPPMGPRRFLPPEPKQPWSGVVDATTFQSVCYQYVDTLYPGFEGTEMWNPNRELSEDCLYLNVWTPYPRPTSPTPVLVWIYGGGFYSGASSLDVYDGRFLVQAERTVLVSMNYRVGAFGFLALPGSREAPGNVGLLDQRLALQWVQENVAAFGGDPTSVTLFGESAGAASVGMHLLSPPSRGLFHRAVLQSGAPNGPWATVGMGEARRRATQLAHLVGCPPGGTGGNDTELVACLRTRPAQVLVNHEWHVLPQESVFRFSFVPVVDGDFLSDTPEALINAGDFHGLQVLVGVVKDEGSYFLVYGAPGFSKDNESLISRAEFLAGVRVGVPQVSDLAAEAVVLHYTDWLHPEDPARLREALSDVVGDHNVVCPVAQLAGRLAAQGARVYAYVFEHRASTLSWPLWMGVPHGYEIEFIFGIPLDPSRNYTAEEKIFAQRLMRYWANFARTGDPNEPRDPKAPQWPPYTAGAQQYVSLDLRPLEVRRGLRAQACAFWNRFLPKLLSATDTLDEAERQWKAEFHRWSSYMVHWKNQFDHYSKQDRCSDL
Reminder that pIC50 is minus the log10 of a molar concentration.

Asked: Find the recorded pIC50 belonging to COC(=O)C1=CON2CCC34C=CC(O)CC3Oc3c(OC)ccc(c34)C12 (stereo not shown) and report it.
Given back: 3.70

Asked: Report pIC50 for COc1cc(C)c2c3c1OC1CC(O)C=CC31CCN(CCCN1CCCCC1)C2 (stereo not shown) please.
Given back: 3.70

Asked: What does the record list as pIC50 for COc1ccc2c3c1OC1C[C@@H](O)C=CC31CCN(c1nc(OCCN)nc(OCCN)n1)C2 (stereo partly shown) ?
Given back: 3.70

Asked: Returns the measured pIC50 for the input compound. Input: COc1cc(C)c2c3c1OC1C[C@@H](O)C=CC31CCN(CCN1CCOCC1)C2 (stereo partly shown)
Given back: 3.70

Asked: Name the recorded pIC50 for COc1cc(C)c2c3c1OC1CC(O)C=CC31CCN(C)C2 (stereo not shown) [SPH-1204] .
Given back: 3.70

Asked: Endpoint output: pIC50 of C=CCN1CCC23C=CC(O)CC2Oc2c(OC)cc(C)c(c23)C1 (stereo not shown) . Value?
Given back: 3.70

Asked: Consider the compound COc1ccc2c3c1OC1C[C@@H](O)C=CC31CCN(c1nc(Oc3ccccc3)nc(Oc3ccccc3)n1)C2 (stereo partly shown) and give its measured pIC50.
Given back: 3.70

Asked: Can you look up the measured pIC50 of COC(=O)C(=CN1CCC23C=CC(O)CC2Oc2c(OC)ccc(c23)C1)C(=O)OC (stereo not shown) for me?
Given back: 4.00

Asked: Entry under review: COc1ccc2c3c1OC1CC(O)C=CC31CC[N+](C)(CC1CC1)C2 (single isomer, unassigned; (-)) . Reported pIC50?
Given back: 5.92

Asked: Query (compound): COc1cc(Br)c2c3c1OC1C[C@@H](O)C=CC31CCN(C(=O)NC(C)C)C2 (stereo partly shown) ; field requested: pIC50
Given back: 3.70
